The reported numbers originate from patent US20130251724A1.

# measurement target: T1, Human OSM (human, UniProt P13725 26-221)
# T1 construct: Recombinant human OSM; also called hOSM; human Oncostatin M
# T1 sequence: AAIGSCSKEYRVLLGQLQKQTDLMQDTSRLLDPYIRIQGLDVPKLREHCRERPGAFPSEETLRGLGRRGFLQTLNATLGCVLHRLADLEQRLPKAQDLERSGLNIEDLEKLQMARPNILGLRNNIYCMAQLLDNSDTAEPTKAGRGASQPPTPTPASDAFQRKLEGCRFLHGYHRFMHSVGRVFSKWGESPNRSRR
# protocol description: BIAcore kinetics, transfection supernatant
Listed below: Kd values for each entry.
Answer in nM, number only, no unit symbol.

Exercise: Record request: Kd value, item Humanised 10G8 H1L2 (antibody, V domains shown) VH: EMQLVESGGGLVQPGGSLRLSCAASGFTFSNYAMSWVRQAPGKGLEWVATISDGGSFTYYLDNVRGRFTISRDNAKNSLYLQMNSLRAEDTAVYYCARDVGHTTFWYFDVWGRGTLVTVSS VL: DIVMTQSPDSLAVSLGERATINCRASKSVSAAGYNFMHWYQQKPGQPPKLLIYYASNLESGVPDRFSGSGSGTDFTLTISSLQAEDVVVYYCLHSREFPFTFGGGTKVEIK
Solution: 0.445

Exercise: Record request: Kd value, item Humanised 10G8 H0L2 (antibody, V domains shown) VH: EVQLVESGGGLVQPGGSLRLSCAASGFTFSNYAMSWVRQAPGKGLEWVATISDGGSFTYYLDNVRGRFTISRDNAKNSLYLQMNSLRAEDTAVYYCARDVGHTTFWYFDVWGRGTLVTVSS VL: DIVMTQSPDSLAVSLGERATINCRASKSVSAAGYNFMHWYQQKPGQPPKLLIYYASNLESGVPDRFSGSGSGTDFTLTISSLQAEDVVVYYCLHSREFPFTFGGGTKVEIK
Solution: 0.375

Exercise: Record request: Kd value, item Humanised 10G8 H2L2 (antibody, V domains shown) VH: EVQLVESGGGLVQPGGSLRLSCAASGFTFSNYAMSWVRQAPGKGLEWVATISDGGSFTYYLDNVRGRFTISRDNAKNSLYLQMNSLRAEDTAVYYCARDVGHTTFWYFDVWGSGTLVTVSS VL: DIVMTQSPDSLAVSLGERATINCRASKSVSAAGYNFMHWYQQKPGQPPKLLIYYASNLESGVPDRFSGSGSGTDFTLTISSLQAEDVVVYYCLHSREFPFTFGGGTKVEIK
Solution: 0.387

Exercise: Record request: Kd value, item Humanised 10G8 H0L1 (antibody, human IgG1, kappa, V domains shown, IgG1 kappa; mature H0 heavy chain and mature L1 light chain; also called Humanised 10G8 H0L1 parent) VH: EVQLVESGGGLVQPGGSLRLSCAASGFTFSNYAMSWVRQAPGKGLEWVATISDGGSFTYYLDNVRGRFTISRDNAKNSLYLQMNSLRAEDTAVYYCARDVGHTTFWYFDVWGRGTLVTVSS VL: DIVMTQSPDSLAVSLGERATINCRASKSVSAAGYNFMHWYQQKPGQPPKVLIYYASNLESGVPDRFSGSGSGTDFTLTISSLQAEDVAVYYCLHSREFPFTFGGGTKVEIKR
Solution: 0.25

Exercise: Record request: Kd value, item Humanised 10G8 H2L1 (antibody, V domains shown) VH: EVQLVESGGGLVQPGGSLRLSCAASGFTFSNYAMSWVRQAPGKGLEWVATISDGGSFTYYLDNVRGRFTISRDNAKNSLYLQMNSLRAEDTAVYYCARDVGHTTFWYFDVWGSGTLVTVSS VL: DIVMTQSPDSLAVSLGERATINCRASKSVSAAGYNFMHWYQQKPGQPPKVLIYYASNLESGVPDRFSGSGSGTDFTLTISSLQAEDVAVYYCLHSREFPFTFGGGTKVEIK
Solution: 0.286
